- system_under_test: human natriuretic peptide receptor B (NPR-B) (human) (UniProt P20594)
- Sequence (P20594 23-1047): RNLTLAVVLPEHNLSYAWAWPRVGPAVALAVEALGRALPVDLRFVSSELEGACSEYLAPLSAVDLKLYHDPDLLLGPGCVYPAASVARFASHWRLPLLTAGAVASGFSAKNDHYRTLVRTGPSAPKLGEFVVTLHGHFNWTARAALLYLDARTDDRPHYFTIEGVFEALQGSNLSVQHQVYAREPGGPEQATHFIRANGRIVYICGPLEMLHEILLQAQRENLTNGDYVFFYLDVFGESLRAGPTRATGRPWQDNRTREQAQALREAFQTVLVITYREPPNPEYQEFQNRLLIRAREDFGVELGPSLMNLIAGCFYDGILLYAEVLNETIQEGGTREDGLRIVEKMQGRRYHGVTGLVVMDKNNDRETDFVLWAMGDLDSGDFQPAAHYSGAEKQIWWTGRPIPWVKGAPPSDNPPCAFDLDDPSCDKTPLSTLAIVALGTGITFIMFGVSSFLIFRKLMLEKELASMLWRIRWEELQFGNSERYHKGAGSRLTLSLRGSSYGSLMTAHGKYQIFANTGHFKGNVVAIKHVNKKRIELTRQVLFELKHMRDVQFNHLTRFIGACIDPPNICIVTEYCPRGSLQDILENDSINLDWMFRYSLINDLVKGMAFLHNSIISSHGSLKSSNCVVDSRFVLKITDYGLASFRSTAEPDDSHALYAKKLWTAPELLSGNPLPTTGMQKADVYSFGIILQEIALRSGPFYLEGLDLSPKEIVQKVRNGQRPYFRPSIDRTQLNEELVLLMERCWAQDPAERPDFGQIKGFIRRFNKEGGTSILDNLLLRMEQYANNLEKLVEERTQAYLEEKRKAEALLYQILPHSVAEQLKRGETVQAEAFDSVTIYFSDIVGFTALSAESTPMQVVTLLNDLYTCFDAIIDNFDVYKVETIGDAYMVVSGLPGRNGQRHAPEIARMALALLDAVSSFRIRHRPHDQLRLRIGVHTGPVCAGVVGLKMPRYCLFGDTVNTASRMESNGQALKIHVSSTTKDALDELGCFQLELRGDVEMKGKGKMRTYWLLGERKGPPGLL
- method: cell-based or functional assay
Ends that are not written are not given here.
Classification field: 1 = Approximate fold selectivity NPR-B versus NPR-A at or over 20 fold; -1 = Approximate fold selectivity NPR-B versus NPR-A under 20 fold.

Before answering, review these 3 worked examples.
[[record]]
binder = "GLSKGCFGLKLDRIGSMSGLGCPSSRAPRPNAPSTSA (ends and bridges not checked; cysteine pairing not given here) [CDNP-S3A5]"
class_label = -1

[[record]]
binder = "GLSKGCFGLKLDRIGSMSGLGCPSLRAPRPNAPSTSA (ends and bridges not checked; cysteine pairing not given here) [CDNP-A5]"
class_label = -1

[[record]]
binder = "GLSKGCFGLKLDRIGSMSGLGCPSSAAPRPNAPSTSA (ends and bridges not checked; cysteine pairing not given here) [CDNP-S3A4A5]"
class_label = 1


In: Identify whether the reported Approximate fold selectivity NPR-B versus NPR-A of the following binder is 20 fold or greater: GLSKGCFGLKLDRIGSMSGLGCPSSADPRPNAPSTSA (ends and bridges not checked; cysteine pairing not given here) [CDNP-S3A4]
Out: 1

In: Identify whether the reported Approximate fold selectivity NPR-B versus NPR-A of the following binder is 20 fold or greater: GLSKGCFGLKLDRIGSMSGLGCPSLADPRPNAPSTSA (ends and bridges not checked; cysteine pairing not given here) [CDNP-A4]
Out: 1

In: Identify whether the reported Approximate fold selectivity NPR-B versus NPR-A of the following binder is 20 fold or greater: GLSKGCFGLKLDRIGSMSGLGCPSLAAPRPNAPSTSA (ends and bridges not checked; cysteine pairing not given here) [CDNP-A4A5]
Out: -1

From: patent US20120164142A1
